Attribution: the NIST ThermoML archive (doi:10.1021/je500050p)

Assay: activity coefficient (dimensionless); of the first substance listed, at infinite dilution; xn = mol fraction of the nth substance listed
Settings: 373.15 K; 101 kPa; Liquid; Chromatography; x1 = 0
value kind: activity coefficient
Give bare numbers.

* CCCCCCCCC [nonane] + CCCCCCCCCCCCCC[N+](CCCCCC)(CCCCCC)CCCCCC.C[C@H](O)C(=O)[O-] | 1.51
* C=CCCCC [hex-1-ene] + CCCCCCCCCCCCCC[N+](CCCCCC)(CCCCCC)CCCCCC.C[C@H](O)C(=O)[O-] | 0.97
* CCCC(C)=O [pentan-2-one] + CCCCCCCCCCCCCC[N+](CCCCCC)(CCCCCC)CCCCCC.C[C@H](O)C(=O)[O-] | 0.59

Recorded activity coefficient of CC(C)CC(C)(C)C [2,2,4-trimethylpentane] + CCCCCCCCCCCCCC[N+](CCCCCC)(CCCCCC)CCCCCC.C[C@H](O)C(=O)[O-] , please.
1.25

* * *

Assay: activity coefficient (dimensionless); of the first substance listed, at infinite dilution; xn = mol fraction of the nth substance listed
Conditions: 353.15 K; 101 kPa; Liquid; Chromatography; x1 = 0
Would you kindly list activity coefficient for each of these molecules?
Give bare numbers.

• Cc1ccccc1 [toluene] + CCCCCCCCCCCCCC[N+](CCCCCC)(CCCCCC)CCCCCC.C[C@H](O)C(=O)[O-] = 0.46

Below are 2 molecules. Give each one its activity coefficient.
1. CC(C)OC(C)C [diisopropyl ether] + CCCCCCCCCCCCCC[N+](CCCCCC)(CCCCCC)CCCCCC.C[C@H](O)C(=O)[O-]
2. CC1CCCCC1 [methylcyclohexane] + CCCCCCCCCCCCCC[N+](CCCCCC)(CCCCCC)CCCCCC.C[C@H](O)C(=O)[O-]

[1.08, 0.82]

The following molecules each have a reported value; give each one's activity coefficient.
1. CCCCCCCCCC [decane] + CCCCCCCCCCCCCC[N+](CCCCCC)(CCCCCC)CCCCCC.C[C@H](O)C(=O)[O-]
2. Cc1ccc(C)cc1 [1,4-dimethylbenzene] + CCCCCCCCCCCCCC[N+](CCCCCC)(CCCCCC)CCCCCC.C[C@H](O)C(=O)[O-]
3. CCCCCC [hexane] + CCCCCCCCCCCCCC[N+](CCCCCC)(CCCCCC)CCCCCC.C[C@H](O)C(=O)[O-]
4. ClCCl [dichloromethane] + CCCCCCCCCCCCCC[N+](CCCCCC)(CCCCCC)CCCCCC.C[C@H](O)C(=O)[O-]
5. CC(C)CC(C)(C)C [2,2,4-trimethylpentane] + CCCCCCCCCCCCCC[N+](CCCCCC)(CCCCCC)CCCCCC.C[C@H](O)C(=O)[O-]
6. CCCCCCC [heptane] + CCCCCCCCCCCCCC[N+](CCCCCC)(CCCCCC)CCCCCC.C[C@H](O)C(=O)[O-]
7. CO [methanol] + CCCCCCCCCCCCCC[N+](CCCCCC)(CCCCCC)CCCCCC.C[C@H](O)C(=O)[O-]
8. c1ccsc1 [thiophene] + CCCCCCCCCCCCCC[N+](CCCCCC)(CCCCCC)CCCCCC.C[C@H](O)C(=O)[O-]

1.63
0.58
1.06
0.08
1.27
1.17
0.03
0.29

Please state, for each entry, its recorded activity coefficient.
1. CC1CCCC1 [methylcyclopentane] + CCCCCCCCCCCCCC[N+](CCCCCC)(CCCCCC)CCCCCC.C[C@H](O)C(=O)[O-]
2. Cc1cccc(C)c1 [1,3-dimethylbenzene] + CCCCCCCCCCCCCC[N+](CCCCCC)(CCCCCC)CCCCCC.C[C@H](O)C(=O)[O-]
3. CCCCCCCC [octane] + CCCCCCCCCCCCCC[N+](CCCCCC)(CCCCCC)CCCCCC.C[C@H](O)C(=O)[O-]
4. CCCCCCCCC [nonane] + CCCCCCCCCCCCCC[N+](CCCCCC)(CCCCCC)CCCCCC.C[C@H](O)C(=O)[O-]
5. CCCC(C)=O [pentan-2-one] + CCCCCCCCCCCCCC[N+](CCCCCC)(CCCCCC)CCCCCC.C[C@H](O)C(=O)[O-]

0.78
0.59
1.31
1.59
0.59
